I'd appreciate it if you could supply IC50 values for the items below.
- TESTED_TARGET: Tv20S β5 (T. vaginalis 20S proteasome, β5 site) (Trichomonas vaginalis, UniProt A2DD57)
- Sequence (A2DD57 54-256): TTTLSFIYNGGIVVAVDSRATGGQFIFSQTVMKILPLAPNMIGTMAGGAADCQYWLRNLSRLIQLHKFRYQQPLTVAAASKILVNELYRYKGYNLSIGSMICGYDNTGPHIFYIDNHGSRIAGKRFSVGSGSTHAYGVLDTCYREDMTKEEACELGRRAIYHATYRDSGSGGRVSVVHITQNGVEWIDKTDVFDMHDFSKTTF
- PROCEDURE_SUMMARY: fluorogenic peptide-amc hydrolysis, dose-response over […] h
Provide only the numeric value, understood in nM.

Query block: Recorded IC50 for CC(C)C[C@H](NC(=O)CNC(=O)c1cc(Cl)ccc1Cl)B(O)O [ixazomib] , please?
Result block: 34.1

Query block: Recorded IC50 for CC(C)C[C@H](NC(=O)[C@H](CCc1ccccc1)NC(=O)CN1CCOCC1)C(=O)N[C@@H](Cc1ccccc1)C(=O)N[C@@H](CC(C)C)C(=O)[C@@]1(C)CO1 [carfilzomib] , please?
Result block: 78.4
